- assay text: Rat plasma pharmacokinetics after 10-day vehicle/SLE and digoxin or GE
- Type: in vivo, Sprague-Dawley rats
- condition info: female, Sprague-Dawley, rat, plasma, po, rats, SLE 500 mg/kg ig once a day for 10 days, day 11 digoxin 0.5 mg/kg or GE 120 mg/kg ig
Below, each of the molecules is paired with its reported Cmax value.
reported property: Cmax (ng/mL)

* CC(C)=CCC[C@](C)(O[C@@H]1O[C@H](CO[C@@H]2O[C@H](CO)[C@@H](O)[C@H](O)[C@H]2O)[C@@H](O)[C@H](O)[C@H]1O)[C@H]1CC[C@]2(C)[C@@H]1[C@H](O)C[C@@H]1[C@@]3(C)CC[C@H](O[C@@H]4O[C@H](CO)[C@@H](O)[C@H](O)[C@H]4O[C@@H]4O[C@H](CO)[C@@H](O)[C@H](O)[C@H]4O)C(C)(C)[C@@H]3CC[C@]12C [Rb1, ginsenoside Rb1] | 736
* CC(C)=CCC[C@](C)(O[C@@H]1O[C@H](CO[C@@H]2OC[C@H](O)[C@H](O)[C@H]2O)[C@@H](O)[C@H](O)[C@H]1O)[C@H]1CC[C@]2(C)[C@@H]1[C@H](O)C[C@@H]1[C@@]3(C)CC[C@H](O[C@@H]4O[C@H](CO)[C@@H](O)[C@H](O)[C@H]4O[C@@H]4O[C@H](CO)[C@@H](O)[C@H](O)[C@H]4O)C(C)(C)[C@@H]3CC[C@]12C [Rb2, ginsenoside Rb2] | 586
* CC(C)=CCC[C@](C)(O[C@@H]1O[C@H](CO)[C@@H](O)[C@H](O)[C@H]1O)[C@H]1CC[C@]2(C)[C@@H]1[C@H](O)C[C@@H]1[C@@]3(C)CC[C@H](O[C@@H]4O[C@H](CO)[C@@H](O)[C@H](O)[C@H]4O[C@@H]4O[C@H](CO)[C@@H](O)[C@H](O)[C@H]4O)C(C)(C)[C@@H]3CC[C@]12C [Rd, ginsenoside Rd] | 265
* C[C@H]1O[C@@H](O[C@H]2[C@@H](O)C[C@H](O[C@H]3[C@@H](O)C[C@H](O[C@H]4CC[C@@]5(C)[C@H](CC[C@@H]6[C@@H]5C[C@@H](O)[C@]5(C)[C@@H](C7=CC(=O)OC7)CC[C@]65O)C4)O[C@@H]3C)O[C@@H]2C)C[C@H](O)[C@@H]1O [Digoxin, digoxin, reference compound] | 22.9

----------
- assay text: Rat plasma pharmacokinetics after 10-day vehicle/SLE and digoxin or GE
- Type: in vivo, Sprague-Dawley rats
- condition info: female, Sprague-Dawley, rat, plasma, po, rats, SLE 500 mg/kg ig once a day for 10 days, day 11 digoxin 0.5 mg/kg or GE 120 mg/kg ig; read-out: AUCINF_obs
reported property: AUC(0-inf) (ng·h/mL)

* CC(C)=CCC[C@](C)(O[C@@H]1O[C@H](CO[C@@H]2O[C@H](CO)[C@@H](O)[C@H](O)[C@H]2O)[C@@H](O)[C@H](O)[C@H]1O)[C@H]1CC[C@]2(C)[C@@H]1[C@H](O)C[C@@H]1[C@@]3(C)CC[C@H](O[C@@H]4O[C@H](CO)[C@@H](O)[C@H](O)[C@H]4O[C@@H]4O[C@H](CO)[C@@H](O)[C@H](O)[C@H]4O)C(C)(C)[C@@H]3CC[C@]12C [Rb1, ginsenoside Rb1] | 27000
* CC(C)=CCC[C@](C)(O[C@@H]1O[C@H](CO)[C@@H](O)[C@H](O)[C@H]1O)[C@H]1CC[C@]2(C)[C@@H]1[C@H](O)C[C@@H]1[C@@]3(C)CC[C@H](O[C@@H]4O[C@H](CO)[C@@H](O)[C@H](O)[C@H]4O[C@@H]4O[C@H](CO)[C@@H](O)[C@H](O)[C@H]4O)C(C)(C)[C@@H]3CC[C@]12C [Rd, ginsenoside Rd] | 11700
* C[C@H]1O[C@@H](O[C@H]2[C@@H](O)C[C@H](O[C@H]3[C@@H](O)C[C@H](O[C@H]4CC[C@@]5(C)[C@H](CC[C@@H]6[C@@H]5C[C@@H](O)[C@]5(C)[C@@H](C7=CC(=O)OC7)CC[C@]65O)C4)O[C@@H]3C)O[C@@H]2C)C[C@H](O)[C@@H]1O [Digoxin, digoxin, reference compound] | 127

----------
- assay text: Rat plasma pharmacokinetics after single-dose vehicle/SLE and digoxin or GE
- Type: in vivo, Sprague-Dawley rats
- condition info: female, Sprague-Dawley, rat, plasma, po, rats, single SLE 500 mg/kg ig, 2 h later digoxin 0.5 mg/kg or GE 120 mg/kg ig; read-out: t1/2 (converted)
Below, each of the compounds is paired with its reported half-life value.
reported property: half-life

- CC(C)=CCC[C@](C)(O[C@@H]1O[C@H](CO[C@@H]2OC[C@H](O)[C@H](O)[C@H]2O)[C@@H](O)[C@H](O)[C@H]1O)[C@H]1CC[C@]2(C)[C@@H]1[C@H](O)C[C@@H]1[C@@]3(C)CC[C@H](O[C@@H]4O[C@H](CO)[C@@H](O)[C@H](O)[C@H]4O[C@@H]4O[C@H](CO)[C@@H](O)[C@H](O)[C@H]4O)C(C)(C)[C@@H]3CC[C@]12C [Rb2, ginsenoside Rb2]: 19 h
- CC(C)=CCC[C@](C)(O[C@@H]1O[C@H](CO)[C@@H](O)[C@H](O)[C@H]1O)[C@H]1CC[C@]2(C)[C@@H]1[C@H](O)C[C@@H]1[C@@]3(C)CC[C@H](O[C@@H]4O[C@H](CO)[C@@H](O)[C@H](O)[C@H]4O[C@@H]4O[C@H](CO)[C@@H](O)[C@H](O)[C@H]4O)C(C)(C)[C@@H]3CC[C@]12C [Rd, ginsenoside Rd]: 21.8 h
- CC(C)=CCC[C@](C)(O[C@@H]1O[C@H](CO[C@@H]2O[C@H](CO)[C@@H](O)[C@H](O)[C@H]2O)[C@@H](O)[C@H](O)[C@H]1O)[C@H]1CC[C@]2(C)[C@@H]1[C@H](O)C[C@@H]1[C@@]3(C)CC[C@H](O[C@@H]4O[C@H](CO)[C@@H](O)[C@H](O)[C@H]4O[C@@H]4O[C@H](CO)[C@@H](O)[C@H](O)[C@H]4O)C(C)(C)[C@@H]3CC[C@]12C [Rb1, ginsenoside Rb1]: 11.3 h
- C[C@H]1O[C@@H](O[C@H]2[C@@H](O)C[C@H](O[C@H]3[C@@H](O)C[C@H](O[C@H]4CC[C@@]5(C)[C@H](CC[C@@H]6[C@@H]5C[C@@H](O)[C@]5(C)[C@@H](C7=CC(=O)OC7)CC[C@]65O)C4)O[C@@H]3C)O[C@@H]2C)C[C@H](O)[C@@H]1O [Digoxin, digoxin, reference compound]: 2.98 h

----------
- assay text: Rat plasma pharmacokinetics after single-dose vehicle/SLE and digoxin or GE
- Assay type: in vivo, Sprague-Dawley rats
- condition info: female, Sprague-Dawley, rat, plasma, po, rats, single SLE 500 mg/kg ig, 2 h later digoxin 0.5 mg/kg or GE 120 mg/kg ig; read-out: Tmax
reported property: Tmax (h)

- CC(C)=CCC[C@](C)(O[C@@H]1O[C@H](CO[C@@H]2OC[C@H](O)[C@H](O)[C@H]2O)[C@@H](O)[C@H](O)[C@H]1O)[C@H]1CC[C@]2(C)[C@@H]1[C@H](O)C[C@@H]1[C@@]3(C)CC[C@H](O[C@@H]4O[C@H](CO)[C@@H](O)[C@H](O)[C@H]4O[C@@H]4O[C@H](CO)[C@@H](O)[C@H](O)[C@H]4O)C(C)(C)[C@@H]3CC[C@]12C [Rb2, ginsenoside Rb2]: 9.5
- CC(C)=CCC[C@](C)(O[C@@H]1O[C@H](CO)[C@@H](O)[C@H](O)[C@H]1O)[C@H]1CC[C@]2(C)[C@@H]1[C@H](O)C[C@@H]1[C@@]3(C)CC[C@H](O[C@@H]4O[C@H](CO)[C@@H](O)[C@H](O)[C@H]4O[C@@H]4O[C@H](CO)[C@@H](O)[C@H](O)[C@H]4O)C(C)(C)[C@@H]3CC[C@]12C [Rd, ginsenoside Rd]: 7.5
- CC(C)=CCC[C@](C)(O[C@@H]1O[C@H](CO[C@@H]2O[C@H](CO)[C@@H](O)[C@H](O)[C@H]2O)[C@@H](O)[C@H](O)[C@H]1O)[C@H]1CC[C@]2(C)[C@@H]1[C@H](O)C[C@@H]1[C@@]3(C)CC[C@H](O[C@@H]4O[C@H](CO)[C@@H](O)[C@H](O)[C@H]4O[C@@H]4O[C@H](CO)[C@@H](O)[C@H](O)[C@H]4O)C(C)(C)[C@@H]3CC[C@]12C [Rb1, ginsenoside Rb1]: 11
- C[C@H]1O[C@@H](O[C@H]2[C@@H](O)C[C@H](O[C@H]3[C@@H](O)C[C@H](O[C@H]4CC[C@@]5(C)[C@H](CC[C@@H]6[C@@H]5C[C@@H](O)[C@]5(C)[C@@H](C7=CC(=O)OC7)CC[C@]65O)C4)O[C@@H]3C)O[C@@H]2C)C[C@H](O)[C@@H]1O [Digoxin, digoxin, reference compound]: 1.58
